target: Proto-oncogene tyrosine-protein kinase receptor Ret (Homo sapiens, UniProt P07949); also: in the data inactive means no Kd found up to 30 µM
Sequence (P07949 whole entry): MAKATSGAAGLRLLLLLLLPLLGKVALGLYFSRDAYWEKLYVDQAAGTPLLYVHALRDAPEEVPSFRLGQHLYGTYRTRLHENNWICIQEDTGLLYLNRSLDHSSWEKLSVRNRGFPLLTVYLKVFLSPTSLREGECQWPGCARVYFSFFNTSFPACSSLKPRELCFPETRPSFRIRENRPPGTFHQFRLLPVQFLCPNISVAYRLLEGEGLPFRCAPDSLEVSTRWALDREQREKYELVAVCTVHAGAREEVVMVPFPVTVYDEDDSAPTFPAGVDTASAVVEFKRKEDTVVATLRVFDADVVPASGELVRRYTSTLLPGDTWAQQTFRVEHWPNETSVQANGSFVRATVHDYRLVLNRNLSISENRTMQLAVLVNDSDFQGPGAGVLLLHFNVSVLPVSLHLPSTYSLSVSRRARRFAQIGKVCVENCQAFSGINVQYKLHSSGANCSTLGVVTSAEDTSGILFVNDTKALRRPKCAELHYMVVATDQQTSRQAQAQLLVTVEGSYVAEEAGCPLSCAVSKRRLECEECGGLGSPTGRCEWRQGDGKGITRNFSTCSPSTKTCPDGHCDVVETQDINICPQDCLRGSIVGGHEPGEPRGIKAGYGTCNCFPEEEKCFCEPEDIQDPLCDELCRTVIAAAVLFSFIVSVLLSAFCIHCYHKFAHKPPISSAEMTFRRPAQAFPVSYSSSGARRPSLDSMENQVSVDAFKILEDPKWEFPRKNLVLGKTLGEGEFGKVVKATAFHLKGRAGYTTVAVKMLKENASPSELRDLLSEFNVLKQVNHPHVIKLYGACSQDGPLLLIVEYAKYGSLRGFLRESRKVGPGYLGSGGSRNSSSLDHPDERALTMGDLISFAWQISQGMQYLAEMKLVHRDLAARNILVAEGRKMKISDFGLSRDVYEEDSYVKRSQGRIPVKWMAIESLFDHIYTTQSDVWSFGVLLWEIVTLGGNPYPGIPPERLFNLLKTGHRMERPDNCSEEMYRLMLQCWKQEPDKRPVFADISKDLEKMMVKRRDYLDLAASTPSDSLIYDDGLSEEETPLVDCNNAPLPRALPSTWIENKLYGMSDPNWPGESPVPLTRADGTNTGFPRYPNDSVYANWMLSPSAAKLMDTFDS
The source made the active and inactive calls.
Could you please pick one outcome from this set? true (active), false (inactive)

Solved cases (2 shown):
COMPOUND	LABEL VALUE
COc1cc(N2CCC(N3CCN(C)CC3)CC2)ccc1Nc1ncnc(Nc2ccccc2S(=O)(=O)C(C)C)n1 [ASP-3026]	false
COc1cc(CCc2cc(NC(=O)c3ccc(N4C[C@@H](C)N[C@@H](C)C4)cc3)n[nH]2)cc(OC)c1 [AZD-4547]	true

Now for another entry.
Challenge: Record request — test call for CN1CCC(CNc2ccc3ncc(-c4cccc(OC(F)(F)F)c4)n3n2)CC1 [SGI-1776]
Response given: true

* * *

target: Calcium/calmodulin-dependent protein kinase type II subunit delta (Homo sapiens); also: in the data inactive means no Kd found up to 30 µM
Sequence (Q13557 whole entry): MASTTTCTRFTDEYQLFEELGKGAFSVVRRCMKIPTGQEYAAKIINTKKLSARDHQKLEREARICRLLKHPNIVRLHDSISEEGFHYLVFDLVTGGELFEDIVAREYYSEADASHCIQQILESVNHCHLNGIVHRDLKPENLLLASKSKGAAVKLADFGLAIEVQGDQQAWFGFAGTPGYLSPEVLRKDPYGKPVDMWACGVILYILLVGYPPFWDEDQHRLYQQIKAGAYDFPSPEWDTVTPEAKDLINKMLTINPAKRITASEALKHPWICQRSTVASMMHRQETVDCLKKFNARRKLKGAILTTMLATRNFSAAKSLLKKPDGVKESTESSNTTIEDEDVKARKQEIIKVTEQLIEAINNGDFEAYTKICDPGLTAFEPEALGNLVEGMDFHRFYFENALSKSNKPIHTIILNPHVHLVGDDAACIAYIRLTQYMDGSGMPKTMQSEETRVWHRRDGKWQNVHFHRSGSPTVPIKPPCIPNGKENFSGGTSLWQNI
Calls of active or inactive are those of the source.
Could you please pick one outcome from this set? active, inactive

Solved cases (8 shown):
COMPOUND	LABEL VALUE
Cc1cc(-c2cc(O)ccc2Cl)cc2nnc(Nc3ccc(OCCN4CCCC4)cc3)nc12	inactive
CC[C@H](Nc1ncnc2[nH]cnc12)c1nc2cccc(F)c2c(=O)n1-c1ccccc1 [IDELALISIB]	inactive
COc1cc(N2CCC(N3CCN(C)CC3)CC2)ccc1Nc1ncnc(Nc2ccccc2S(=O)(=O)C(C)C)n1 [ASP-3026]	active
Cc1c(F)cc(C(=O)NC2CC2)cc1-c1ccc(C(=O)NCC(C)(C)C)cn1 [LOSMAPIMOD]	inactive
CO[C@H]1C[C@@H]2CC[C@@H](C)[C@@](O)(O2)C(=O)C(=O)N2CCCC[C@H]2C(=O)O[C@H]([C@H](C)C[C@@H]2CC[C@@H](OCCO)[C@H](OC)C2)CC(=O)[C@H](C)/C=C(\C)[C@@H](O)[C@@H](OC)C(=O)[C@H](C)C[C@H](C)/C=C/C=C/C=C/1C [EVEROLIMUS]	inactive
CNC(=O)c1cc(Oc2ccc(NC(=O)Nc3ccc(Cl)c(C(F)(F)F)c3)c(F)c2)ccn1 [REGORAFENIB]	inactive
C[C@@H](Nc1cc(F)cc(F)c1)c1cc(C(=O)N(C)C)cc2c(=O)cc(N3CCOCC3)oc12 [AZD-8186]	inactive
Cn1cc(-c2ccc3nnc(C(F)(F)c4ccc5ncccc5c4)n3n2)cn1 [JNJ-38877605]	inactive

Challenge: Record request — test call for CC[C@@H]1C(=O)N(C)c2cnc(Nc3ccc(C(=O)N[C@H]4CC[C@H](N5CCN(CC6CC6)CC5)CC4)cc3OC)nc2N1C(C)C [VOLASERTIB]
Response given: inactive

Challenge: Record request — test call for COc1cc2nccc(Oc3ccc(NC(=O)Nc4cc(C)on4)c(Cl)c3)c2cc1OC [TIVOZANIB]
Response given: inactive

Challenge: Record request — test call for O=C(Nc1ccc(-c2ccnc(Nc3ccc(N4CCOCC4)cc3)n2)cc1)C1CCCN1 (stereo unspecified) [XL-019]
Response given: inactive

* * *

target: MAP kinase-activated protein kinase 2 (Homo sapiens, UniProt P49137); also: in the data inactive means no Kd found up to 30 µM
Sequence (P49137 whole entry): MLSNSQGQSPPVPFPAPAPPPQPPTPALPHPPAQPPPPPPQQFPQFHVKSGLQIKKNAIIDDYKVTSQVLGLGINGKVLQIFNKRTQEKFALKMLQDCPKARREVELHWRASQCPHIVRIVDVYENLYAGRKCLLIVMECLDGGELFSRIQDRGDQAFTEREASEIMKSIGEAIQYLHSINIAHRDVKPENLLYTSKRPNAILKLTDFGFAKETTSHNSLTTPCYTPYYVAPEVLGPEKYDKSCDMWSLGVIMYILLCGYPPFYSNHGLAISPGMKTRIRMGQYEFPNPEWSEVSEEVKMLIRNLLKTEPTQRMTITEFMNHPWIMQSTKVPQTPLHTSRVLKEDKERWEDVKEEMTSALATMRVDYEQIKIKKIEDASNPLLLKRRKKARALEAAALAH
The source made the active and inactive calls.
# Kd annotations

For orientation, consider the following solved cases.
Cc1cc([C@@H](C)Nc2ccccc2C(=O)O)c2nc(N3CCOCC3)cc(=O)n2c1 > 30 µM (inactive)
C=CC(=O)N1CCC(Oc2cc3c(Nc4ccc(Cl)c(Cl)c4F)ncnc3cc2OC)CC1 > 30 µM (inactive)
CNC(=O)c1cc(Oc2ccc(NC(=O)Nc3ccc(Cl)c(C(F)(F)F)c3)c(F)c2)ccn1 0.682 µM (active)
CN1CC[C@@H](c2c(O)cc(O)c3c(=O)cc(-c4ccccc4Cl)oc23)[C@@H]1CO > 30 µM (inactive)
CN(C)C(=O)c1cc2cnc(Nc3ccc(N4CCNCC4)cn3)nc2n1C1CCCC1 > 30 µM (inactive)

Note: attention shifts to another entry.
Challenge: Request body: readout Kd, system MAP kinase-activated protein kinase 2 (Homo sapiens, UniProt P49137), query Cn1ncc(Cl)c1-c1cc(C(=O)N[C@H](CN)Cc2cccc(F)c2)sc1Cl . Return the value. Also: in the data inactive means no Kd found up to 30 µM.
Response given: > 30 µM (inactive)

* * *

target: Phosphorylase b kinase gamma catalytic chain, liver/testis isoform (Homo sapiens); also: in the data inactive means no Kd found up to 30 µM
Sequence (P15735 whole entry, canonical isoform): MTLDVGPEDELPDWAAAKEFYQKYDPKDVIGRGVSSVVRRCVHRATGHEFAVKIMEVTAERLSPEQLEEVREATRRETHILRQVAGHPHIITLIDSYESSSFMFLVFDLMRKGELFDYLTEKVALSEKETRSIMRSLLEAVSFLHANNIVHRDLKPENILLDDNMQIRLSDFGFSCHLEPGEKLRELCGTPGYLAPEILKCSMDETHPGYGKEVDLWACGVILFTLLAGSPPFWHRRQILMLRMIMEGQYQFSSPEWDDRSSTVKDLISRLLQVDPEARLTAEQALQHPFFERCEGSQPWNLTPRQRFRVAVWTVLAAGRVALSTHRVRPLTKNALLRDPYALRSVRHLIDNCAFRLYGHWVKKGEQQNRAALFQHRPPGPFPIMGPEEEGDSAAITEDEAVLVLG
Active and inactive are the calls of the source.
Could you please pick one outcome from this set? active, inactive

MOLECULE	EXPERIMENTAL TARGET	LABEL VALUE
CNC(=O)c1ccc(-c2cnc3ncc(Cc4ccc5ncccc5c4)n3n2)cc1F	Phosphorylase b kinase gamma catalytic chain, liver/testis isoform (Homo sapiens)	inactive
O=C(c1ccc(F)c(F)c1Nc1ccc(I)cc1F)N1CC(O)([C@@H]2CCCCN2)C1	Phosphorylase b kinase gamma catalytic chain, liver/testis isoform (Homo sapiens)	inactive
CN(C)C(=O)c1cc2cnc(Nc3ccc(N4CCNCC4)cn3)nc2n1C1CCCC1	Phosphorylase b kinase gamma catalytic chain, liver/testis isoform (Homo sapiens)	inactive
Cc1ccc(S(=O)(=O)Nc2nc3ccccc3nc2Nc2ccc3nsnc3c2)cc1	Phosphorylase b kinase gamma catalytic chain, liver/testis isoform (Homo sapiens)	inactive
Cn1cc(-c2ccc(F)c(C(F)(F)F)c2)nc1C1CCN(c2ncnc3[nH]ncc23)CC1	Phosphorylase b kinase gamma catalytic chain, liver/testis isoform (Homo sapiens)	inactive

Challenge: Record request — test call for Cn1ncc(Cl)c1-c1cc(C(=O)N[C@H](CN)Cc2cccc(F)c2)sc1Cl
Response given: inactive

Challenge: Record request — test call for CO[C@H]1C[C@@H]2CC[C@@H](C)[C@@](O)(O2)C(=O)C(=O)N2CCCC[C@H]2C(=O)O[C@H]([C@H](C)C[C@@H]2CC[C@@H](OCCO)[C@H](OC)C2)CC(=O)[C@H](C)/C=C(\C)[C@@H](O)[C@@H](OC)C(=O)[C@H](C)C[C@H](C)/C=C/C=C/C=C/1C
Response given: inactive

Challenge: Record request — test call for COc1cc(N2CCC(N3CCN(C)CC3)CC2)ccc1Nc1ncnc(Nc2ccccc2S(=O)(=O)C(C)C)n1
Response given: inactive

Challenge: Record request — test call for Cn1cc(-c2ccc3nnc(C(F)(F)c4ccc5ncccc5c4)n3n2)cn1
Response given: inactive

Challenge: Record request — test call for CNC(=O)c1ccc(C)c(-n2c(C)cc(OCc3ccc(F)cc3F)c(Br)c2=O)c1
Response given: inactive

Challenge: Record request — test call for COC(=O)[C@@]1(O)C[C@H]2O[C@]1(C)n1c3ccccc3c3c4c(c5c6ccccc6n2c5c31)C(=O)NC4 [K-252A]
Response given: active

Challenge: Record request — test call for CN1CCC(CNc2ccc3ncc(-c4cccc(OC(F)(F)F)c4)n3n2)CC1
Response given: inactive

* * *

target: Protein-tyrosine kinase 2-beta (Homo sapiens, UniProt Q14289); also: in the data inactive means no Kd found up to 30 µM
Sequence (Q14289 whole entry): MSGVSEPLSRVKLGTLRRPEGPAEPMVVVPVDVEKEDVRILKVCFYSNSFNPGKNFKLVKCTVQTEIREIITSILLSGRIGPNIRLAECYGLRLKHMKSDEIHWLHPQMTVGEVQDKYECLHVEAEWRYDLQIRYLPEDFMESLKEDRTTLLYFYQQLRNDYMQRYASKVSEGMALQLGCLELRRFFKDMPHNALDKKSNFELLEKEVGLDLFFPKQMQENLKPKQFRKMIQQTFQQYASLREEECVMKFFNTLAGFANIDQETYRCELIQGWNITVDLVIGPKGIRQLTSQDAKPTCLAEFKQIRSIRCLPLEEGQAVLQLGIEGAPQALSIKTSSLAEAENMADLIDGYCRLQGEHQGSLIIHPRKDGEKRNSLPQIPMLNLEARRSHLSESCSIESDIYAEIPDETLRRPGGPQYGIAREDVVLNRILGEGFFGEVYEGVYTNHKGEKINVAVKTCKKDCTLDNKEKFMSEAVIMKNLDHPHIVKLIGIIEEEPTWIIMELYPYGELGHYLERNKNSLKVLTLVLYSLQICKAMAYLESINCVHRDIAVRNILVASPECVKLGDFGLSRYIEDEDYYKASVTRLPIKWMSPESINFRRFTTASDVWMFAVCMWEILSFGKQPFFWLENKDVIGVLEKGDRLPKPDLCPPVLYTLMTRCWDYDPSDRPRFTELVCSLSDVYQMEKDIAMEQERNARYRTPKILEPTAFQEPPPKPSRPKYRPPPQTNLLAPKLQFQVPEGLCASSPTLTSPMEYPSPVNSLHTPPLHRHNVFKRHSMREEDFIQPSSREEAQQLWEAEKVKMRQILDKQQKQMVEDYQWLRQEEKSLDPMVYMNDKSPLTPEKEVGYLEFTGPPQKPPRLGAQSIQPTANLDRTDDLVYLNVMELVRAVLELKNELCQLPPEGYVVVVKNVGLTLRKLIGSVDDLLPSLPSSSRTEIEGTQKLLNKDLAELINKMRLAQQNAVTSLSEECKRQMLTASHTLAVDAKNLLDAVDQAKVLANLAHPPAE
The source made the active and inactive calls.
Could you please pick one outcome from this set? yes (1) (active), no (0) (inactive)

CNC(=O)c1ccc(C)c(-n2c(C)cc(OCc3ccc(F)cc3F)c(Br)c2=O)c1 no (0)
Cc1ccc(-n2nc(C(C)(C)C)cc2NC(=O)NCc2cc(F)ccc2Oc2ccc3c(cnn3CCO)c2)cc1 yes (1)

Challenge: Record request — test call for O=C(Nc1cccc(Cl)c1)Nc1ncc(CCNc2ncnc3ccsc23)s1
Response given: no (0)

* * *

target: STE20-like serine/threonine-protein kinase (Homo sapiens); also: in the data inactive means no Kd found up to 30 µM
Sequence (Q9H2G2 whole entry): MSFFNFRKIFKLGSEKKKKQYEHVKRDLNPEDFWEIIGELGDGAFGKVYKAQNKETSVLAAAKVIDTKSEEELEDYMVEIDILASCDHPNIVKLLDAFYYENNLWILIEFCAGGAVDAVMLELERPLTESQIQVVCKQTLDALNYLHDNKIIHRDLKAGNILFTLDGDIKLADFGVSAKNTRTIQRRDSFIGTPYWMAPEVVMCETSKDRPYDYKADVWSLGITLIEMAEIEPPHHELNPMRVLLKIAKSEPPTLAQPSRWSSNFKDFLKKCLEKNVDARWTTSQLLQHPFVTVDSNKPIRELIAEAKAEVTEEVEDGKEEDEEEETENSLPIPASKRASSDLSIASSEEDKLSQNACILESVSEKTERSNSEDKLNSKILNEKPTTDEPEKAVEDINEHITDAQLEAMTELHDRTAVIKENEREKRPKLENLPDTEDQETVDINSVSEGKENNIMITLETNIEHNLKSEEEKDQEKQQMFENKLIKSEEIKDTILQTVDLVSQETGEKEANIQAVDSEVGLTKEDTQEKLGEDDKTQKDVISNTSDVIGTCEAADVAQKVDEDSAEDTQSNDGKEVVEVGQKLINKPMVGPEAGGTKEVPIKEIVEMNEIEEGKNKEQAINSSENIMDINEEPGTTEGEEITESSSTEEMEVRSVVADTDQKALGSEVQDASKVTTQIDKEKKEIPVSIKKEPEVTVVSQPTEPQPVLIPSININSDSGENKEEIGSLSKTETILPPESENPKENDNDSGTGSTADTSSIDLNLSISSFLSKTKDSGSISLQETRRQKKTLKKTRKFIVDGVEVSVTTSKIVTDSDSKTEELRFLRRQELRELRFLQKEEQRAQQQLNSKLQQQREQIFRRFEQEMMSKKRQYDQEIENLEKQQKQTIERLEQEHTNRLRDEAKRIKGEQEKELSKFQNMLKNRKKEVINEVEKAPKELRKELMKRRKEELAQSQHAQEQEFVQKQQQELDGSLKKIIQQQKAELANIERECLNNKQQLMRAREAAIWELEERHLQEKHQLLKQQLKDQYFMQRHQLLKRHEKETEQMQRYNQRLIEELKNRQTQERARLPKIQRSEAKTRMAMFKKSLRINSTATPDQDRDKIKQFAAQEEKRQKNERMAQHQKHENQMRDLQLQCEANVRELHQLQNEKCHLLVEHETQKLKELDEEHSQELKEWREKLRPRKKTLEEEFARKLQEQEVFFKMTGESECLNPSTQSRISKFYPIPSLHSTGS
Activity calls are given as the source filed them.
Could you please pick one outcome from this set? active, inactive

Challenge: Record request — test call for CCc1cnn2c(NCc3ccc[n+]([O-])c3)cc(N3CCCC[C@H]3CCO)nc12
Response given: inactive

Challenge: Record request — test call for OCCn1cc(-c2cnc3nnn(Cc4ccc5ncccc5c4)c3n2)cn1
Response given: inactive

Challenge: Record request — test call for O=C1NC(=O)/C(=C/c2ccc3nccc(-c4ccncc4)c3c2)S1
Response given: active

Challenge: Record request — test call for COC(=O)N[C@@H](C)CNc1nccc(-c2cn(C(C)C)nc2-c2cc(Cl)cc(NS(C)(=O)=O)c2F)n1
Response given: inactive

Challenge: Record request — test call for CNC(=O)CN1CCC(Oc2cc3c(Nc4cccc(Cl)c4F)ncnc3cc2OC)CC1
Response given: inactive

Challenge: Record request — test call for Cc1cc([C@@H](C)Nc2ccccc2C(=O)O)c2nc(N3CCOCC3)cc(=O)n2c1
Response given: inactive

Challenge: Record request — test call for COc1cc2nccc(Oc3ccc(NC(=O)NC4CC4)c(Cl)c3)c2cc1C(N)=O
Response given: active

Challenge: Record request — test call for Cc1ccc(S(=O)(=O)Nc2nc3ccccc3nc2Nc2ccc3nsnc3c2)cc1
Response given: inactive

Challenge: Record request — test call for C[C@@H](Nc1cc(F)cc(F)c1)c1cc(C(=O)N(C)C)cc2c(=O)cc(N3CCOCC3)oc12
Response given: inactive

Challenge: Record request — test call for COc1cc(OC)c(/C=C/S(=O)(=O)Cc2ccc(OC)c(NCC(=O)O)c2)c(OC)c1
Response given: inactive

Challenge: Record request — test call for CCCS(=O)(=O)Nc1ccc(F)c(C(=O)c2c[nH]c3ncc(-c4ccc(Cl)cc4)cc23)c1F
Response given: inactive

Challenge: Record request — test call for O=C(O)[C@]1(Cc2cccc(Nc3nccs3)n2)CC[C@@H](Oc2cccc(Cl)c2F)CC1
Response given: inactive

Challenge: Record request — test call for Cc1cc2c(F)c(Oc3ncnn4cc(OC[C@@H](C)OC(=O)[C@H](C)N)c(C)c34)ccc2[nH]1 [BRIVANIB ALANINATE]
Response given: active

Challenge: Record request — test call for O=C(c1ccc(F)c(F)c1Nc1ccc(I)cc1F)N1CC(O)([C@@H]2CCCCN2)C1
Response given: inactive

Challenge: Record request — test call for CN(C)C(=O)c1cc2cnc(Nc3ccc(N4CCNCC4)cn3)nc2n1C1CCCC1
Response given: inactive

Attribution: ChEMBL document CHEMBL3991601
